B1: Tyrosine-protein kinase BTK, residues 215 to 273; numbered along this chain, Q06187 (parent)
chain: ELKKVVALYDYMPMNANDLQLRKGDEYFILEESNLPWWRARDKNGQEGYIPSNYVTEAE

variants of: B1; experiment: abundance fitness (aPCA) (normalised: wild type 0, dead -1); higher = more abundant; growth selection in yeast, the domain comes from the species named; details: Homo sapiens
value-kind: abundance fitness

Sample records with abundance fitness:
E59P	-0.025
L19G	-0.851
E59K	-0.008
V55D	-0.891

Below are some variants; for each one, tell me its abundance fitness.
1. E59C
2. R22P
3. E59M
4. I29P
5. I50F
6. N44F
7. E31P
8. D42E

1: -0.061; 2: -0.768; 3: -0.138; 4: -0.483; 5: -0.121; 6: -0.026; 7: -0.162; 8: -0.23
